System: Loucy T-ALL cell line
Measurement Notes: Cell proliferation assay (CellTiter-Glo cell viability), Loucy
Format: cell-based
Condition Details: 168 h, Buparlisib with 1 μM of GSI, 7 days, read-out: IC50, cell viability normalized to DMSO
Method: FIG. 16A-16E is a series of graphs showing inhibition of T-ALL proliferation by PI3K inhibitor is increased when combined with GSI. […] Buparlisib (Selleckchem) and GSI (Santa Cruz Biotechnology, Inc) were prepared in DMSO (Sigma-Aldrich). Cell proliferation assays were measured by CellTiter-Glo Luminescent Cell viability assay (Promega), after a period of seven days. IC50 values were calculated by fitting the dose-response curves to a three-parameter sigmoid dose-response model using GraphPad. […]
Reported Endpoint: IC50 (nM)
Express the result in nM but write the number alone.

// fetch IC50 given entry Nc1cc(C(F)(F)F)c(-c2cc(N3CCOCC3)nc(N3CCOCC3)n2)cn1
710
